test system: eIF protein expression; assay: eIF protein expression after chemosensitivity testings in murine GBM xenograft models (immunoblot); type: in vivo, mice; settings: murine GBM xenografts, vs PBS control
quantity-kind: eIF3C protein expression

INSERT INTO results (compound, result) VALUES
  ('CNC(=O)c1cc(Oc2ccc(NC(=O)Nc3ccc(Cl)c(C(F)(F)F)c3)cc2)ccn1 [Sorafenib]', 'upregulated'),
  ('CO[C@H]1C[C@@H]2CC[C@@H](C)[C@@](O)(O2)C(=O)C(=O)N2CCCC[C@H]2C(=O)O[C@H]([C@H](C)C[C@@H]2CC[C@@H](OCCO)[C@H](OC)C2)CC(=O)[C@H](C)/C=C(\C)[C@@H](O)[C@@H](OC)C(=O)[C@H](C)C[C@H](C)/C=C/C=C/C=C/1C [Everolimus]', 'upregulated'),
  ('O=C1CCC(N2C(=O)c3ccccc3C2=O)C(=O)N1 (stereo not shown) [Thalidomide]', 'upregulated'),
  ('CC[C@@H](C(=O)[C@@H](C)[C@@H](O)[C@H](C)[C@@H]1O[C@@H]([C@@H](CC)C(=O)O)CC[C@@H]1C)[C@H]1O[C@]2(C=C[C@@H](O)[C@]3(CC[C@@](C)([C@H]4CC[C@](O)(CC)[C@H](C)O4)O3)O2)[C@H](C)C[C@@H]1C [Salinomycin]', 'upregulated');
